For each entry below, report its GI50 value.
- System: SK-OV-3
- assayOverview: NCI tumour cell line growth inhibition, 48 h
Activity calls are given as the source filed them. Cut-off read from the data, not from the text of the source: active = GI50 up to about 1.1 µM and inactive = higher.

# molecule, assayedTarget, GI50
records = [
    ("COc1cc(Nc2nc3ccccc3n3cccc23)cc(OC)c1OC", "SK-OV-3", "37.3 µM (inactive)"),
    ("CC(C)CN(CC(C)C)C(=O)C1CCCC[C@@H]1C(=O)O (stereo not given in full)", "SK-OV-3", "> 100 µM (inactive)"),
    ("COc1ccc2c(c1)CN1C(=N2)CSC1c1cc([N+](=O)[O-])ccc1Cl (stereo not given)", "SK-OV-3", "45.3 µM (inactive)"),
]

Could you tell me GI50 for each of these molecules? They are listed below.
1. O=C1CC(n2cccc2)c2cc(Br)sc21 (stereo not given)
2. Cc1ccc([N+](=O)[O-])cc1NC(=O)c1cccc([N+](=O)[O-])c1O
3. O=C1/C(=C/c2ccncc2)C(n2cccc2)c2c(Br)sc(Br)c21 (stereo not given)
4. COc1ccc(/C=N/Nc2nc3ccccc3c(=O)n2-c2ccccc2)c(OCc2ccccc2)c1
5. [O-][S+](Cc1cnc2ccccc2c1)c1nc2ccccc2nc1-c1cccs1 (stereo not given)
6. CC1(CO)C(=O)OC12CCCCC2 (stereo not given)
7. C=C(CO)[C@H]1CC/C(C)=C/CC/C(C)=C/C/C=C(\C)[C@H](O)C1

[out]
> 100 µM (inactive)
17.1 µM (inactive)
7.78 µM (inactive)
> 100 µM (inactive)
29.2 µM (inactive)
> 100 µM (inactive)
> 100 µM (inactive)

Could you tell me GI50 for each of these molecules? They are listed below.
1. COc1cc([C@@H]2c3cc4c(c(O[C@@H]5O[C@H]6CO[C@@H](C)O[C@H]6[C@H](O)[C@@H]5O)c3C[C@H]3COC(=O)[C@@H]32)OCO4)cc(OC)c1O
2. CCOC(C[Se]CC(OCC)OCC)OCC
3. C=CCCC1CCCCC/C1=N\N(C)C (stereo not given)
4. O=c1ccc(=O)n(-c2ccccc2)[nH]1

[out]
["19.6 µM (inactive)", "74.6 µM (inactive)", "> 100 µM (inactive)", "> 100 µM (inactive)"]

Could you tell me GI50 for each of these molecules? They are listed below.
1. COc1ccc(CCCN2c3ccccc3Sc3ccccc32)cc1
2. Cn1nc2ccc([N+](=O)[O-])c(Cn3nnc4ccccc43)c2n1
3. CC1=C(C(=O)Nc2ccc([N+](=O)[O-])cc2)C(c2ccco2)C(C(=O)Nc2ccc([N+](=O)[O-])cc2)=C(C)N1
4. O=C1/C(=C/c2ccc(O)c([N+](=O)[O-])c2)CCC/C1=C\c1ccc(O)c([N+](=O)[O-])c1
5. COc1cc([C@H]2CC(=O)C[C@@H](c3cc(OC)c(OC)c(OC)c3)C23C(=O)c2ccccc2C3=O)cc(OC)c1OC
6. Cc1ccc(S(=O)(=O)n2cc(/C=C/C#N)c(-c3cn(S(=O)(=O)c4ccc(C)cc4)cc3-c3cn(S(=O)(=O)c4ccc(C)cc4)cc3/C=C/C#N)c2)cc1

[out]
1: > 100 µM (inactive); 2: > 100 µM (inactive); 3: 9.35 µM (inactive); 4: 26 µM (inactive); 5: > 100 µM (inactive); 6: > 100 µM (inactive)
